- Tested on: LoVo
- runDescription: Cytotoxicity assay (SRB), LoVo
- Assay type: cell-based
- assayContext: Homo sapiens, LoVo, 72 h, LoVo cells, 3 days, SRB; read-out: In Vitro Cellular Activity IC50 LOVO
Each entry below carries its recorded IC50.

Example results:
                                   molecule  metricname   result
0  O=C1NC(=O)c2ccc(I)cc2/C1=C/NCc1ccc(-c2cccnc2)c(O)c1        IC50  0.38 µM
1  NS(=O)(=O)c1ccc(CNC=C2C(=O)NC(=O)c3ccc(-c4cc5ccccc5s4)cc32)cc1        IC50  > 50 µM
2  CC(CO)N1CCN(c2ccc(N/C=C3\C(=O)NC(=O)c4ccc(I)cc43)cc2)CC1 (stereo not shown)        IC50   6.3 µM

Then this molecule:
Query: Return reported IC50. Input molecule: `O=C1NC(=O)c2ccc(-c3ccoc3)cc2/C1=C/Nc1ccc(CN2CCC(CCO)CC2)cc1`
Result: 2.7 µM

* * *

Each entry below carries its recorded inhibition at 10 µM.
- targetOrTestSystem: IGF1-receptor kinase (Homo sapiens, UniProt P08069)
- Construct: Purified GST-IGFR; purified Bis-IGFR and Tris-IGFR; fused on or other part: GST with a thrombin cleavage site, removed in the Bis-IGFR and Tris-IGFR forms
- Sequence (P08069 999-1274 limits assumed): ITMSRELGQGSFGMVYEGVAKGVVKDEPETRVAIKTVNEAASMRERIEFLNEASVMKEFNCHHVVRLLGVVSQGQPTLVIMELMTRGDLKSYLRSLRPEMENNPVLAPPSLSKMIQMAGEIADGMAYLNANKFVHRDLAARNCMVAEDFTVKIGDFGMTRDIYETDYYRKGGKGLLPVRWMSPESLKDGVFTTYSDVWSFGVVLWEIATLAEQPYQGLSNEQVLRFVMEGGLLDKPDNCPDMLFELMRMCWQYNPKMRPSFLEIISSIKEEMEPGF
- runDescription: IGF1-R kinase assay (96-well FRET Lance)
- Format: biochemical
- assayContext: 10 uM compound; read-out: Igfr % Inhibition at 10 uM

Example results:
In [3]: df
Out[3]:
                                   molecule  result
0  Nc1cccc(Nc2ccc3c(c2)/C(=C/Nc2ccc(CN4CCCCC4)cc2)C(=O)NC3=O)c1 [Example 883]     33%
1  CN(C)c1ccc(Nc2ccc3c(c2)/C(=C/Nc2ccc(CN4CCCCC4)cc2)C(=O)NC3=O)cc1 [Example 888]     14%
2  CCOC(=O)c1ccc(Nc2ccc3c(c2)/C(=C/Nc2ccc(CN4CCCCC4)cc2)C(=O)NC3=O)cc1 [Example 903]     45%
3  O=C1NC(=O)c2ccc(Nc3cccc(C(F)(F)F)c3)cc2/C1=C/Nc1ccc(CN2CCCCC2)cc1 [Example 886]     32%
4  O=C1NC(=O)c2ccc(Nc3ccc(Cl)cc3)cc2/C1=C/Nc1ccc(CN2CCCCC2)cc1 [Example 890]     47%

Query: Return reported inhibition at 10 µM. Input molecule: Cc1cccc(Nc2ccc3c(c2)/C(=C/Nc2ccc(CN4CCCCC4)cc2)C(=O)NC3=O)c1 [Example 884]
Result: 20%

* * *

- targetOrTestSystem: cyclin D1/cdk 4 enzyme (Homo sapiens, UniProt P11802)
- Construct: made in house; host or cells: Sf9 insect cells, recombinant baculovirus
- Sequence (P11802 whole entry, species assumed): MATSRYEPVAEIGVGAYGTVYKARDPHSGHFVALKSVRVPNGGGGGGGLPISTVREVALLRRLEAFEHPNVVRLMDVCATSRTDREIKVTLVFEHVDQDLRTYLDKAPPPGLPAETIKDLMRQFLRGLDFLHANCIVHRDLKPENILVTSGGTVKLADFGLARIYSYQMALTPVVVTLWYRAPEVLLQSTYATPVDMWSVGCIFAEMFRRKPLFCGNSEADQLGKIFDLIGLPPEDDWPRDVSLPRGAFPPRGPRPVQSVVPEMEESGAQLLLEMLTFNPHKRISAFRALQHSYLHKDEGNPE
- Sequence (P24385 whole entry partner, species assumed): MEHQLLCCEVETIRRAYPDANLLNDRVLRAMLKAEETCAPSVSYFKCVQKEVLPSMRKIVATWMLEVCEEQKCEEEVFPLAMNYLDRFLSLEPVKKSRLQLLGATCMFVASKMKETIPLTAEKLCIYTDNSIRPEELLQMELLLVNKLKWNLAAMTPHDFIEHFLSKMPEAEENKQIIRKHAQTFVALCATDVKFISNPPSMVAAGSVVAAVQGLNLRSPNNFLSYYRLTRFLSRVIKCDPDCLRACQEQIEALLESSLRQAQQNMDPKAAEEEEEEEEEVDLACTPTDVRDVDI
- runDescription: CDK4 ELISA kinase assay (phospho-Rb ser 795 detection)
- Type: biochemical
- assayContext: In Vitro Enzyme Assay, cyclin D1/cdk 4, read-out: CDK4 IC50
pIC50: −log10 of the molar value.
Class membership depends on pIC50 alone; the intervals are category 1 (below 5), category 2 (5 to below 7), category 3 (7 or more)

// below: answered compounds
>>> df
                                 itemsmiles       class
0  CN1CCN(c2ccc(NC=C3C(=O)NC(=O)c4ccc(-c5cccc(C(=O)O)c5)cc43)cc2)CC1  category 2
1  O=C1NC(=O)c2ccc(-c3ccoc3)cc2/C1=C/Nc1ccc(CN2CCC[C@H]2CO)cc1  category 3
2  CS(=O)(=O)NCc1ccc(NC=C2C(=O)NC(=O)c3ccccc32)cc1  category 1
3  CN1CCN(c2ccc(NC=C3C(=O)NCc4cc(-c5cccs5)ccc43)cc2)CC1  category 1

Query: Which bin should I file `O=C1NC(=O)c2ccc(I)cc2/C1=C/NCc1ccc(-n2cccc2)c(O)c1` under?
Result: category 3

Query: Which bin should I file `Cc1cccc(-c2ccc3c(c2)C(=CNc2ccc(N4CCN(C)CC4)cc2)C(=O)NC3=O)c1` under?
Result: category 1

Query: Which bin should I file `CC(C)S(=O)(=O)Nc1cccc(CNC=C2C(=O)NC(=O)c3ccccc32)c1` under?
Result: category 1

Query: Which bin should I file `O=C1NC(=O)c2ccc(N3CCCC3)cc2/C1=C/NCc1ccc(O)c(O)c1` under?
Result: category 3

Query: Which bin should I file `CN1CCN(c2ccc(NC=C3C(=O)NC(=O)c4ccc(C=CCn5ccnc5)cc43)cc2)CC1` under?
Result: category 2

* * *

- targetOrTestSystem: cyclin B/CDK1 enzyme (Homo sapiens, UniProt P06493)
- Construct: purchased New England BioLabs; host or cells: Sf9 insect cells, recombinant baculovirus
- Sequence (P06493 whole entry): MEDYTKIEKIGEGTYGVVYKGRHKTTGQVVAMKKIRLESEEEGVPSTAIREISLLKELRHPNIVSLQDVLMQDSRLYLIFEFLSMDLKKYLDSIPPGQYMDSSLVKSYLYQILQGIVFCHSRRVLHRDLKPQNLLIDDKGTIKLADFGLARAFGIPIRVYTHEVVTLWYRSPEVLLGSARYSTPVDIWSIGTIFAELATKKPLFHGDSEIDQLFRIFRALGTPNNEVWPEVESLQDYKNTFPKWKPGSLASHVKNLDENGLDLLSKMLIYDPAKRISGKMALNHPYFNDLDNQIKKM
- Sequence (P14635 whole entry partner): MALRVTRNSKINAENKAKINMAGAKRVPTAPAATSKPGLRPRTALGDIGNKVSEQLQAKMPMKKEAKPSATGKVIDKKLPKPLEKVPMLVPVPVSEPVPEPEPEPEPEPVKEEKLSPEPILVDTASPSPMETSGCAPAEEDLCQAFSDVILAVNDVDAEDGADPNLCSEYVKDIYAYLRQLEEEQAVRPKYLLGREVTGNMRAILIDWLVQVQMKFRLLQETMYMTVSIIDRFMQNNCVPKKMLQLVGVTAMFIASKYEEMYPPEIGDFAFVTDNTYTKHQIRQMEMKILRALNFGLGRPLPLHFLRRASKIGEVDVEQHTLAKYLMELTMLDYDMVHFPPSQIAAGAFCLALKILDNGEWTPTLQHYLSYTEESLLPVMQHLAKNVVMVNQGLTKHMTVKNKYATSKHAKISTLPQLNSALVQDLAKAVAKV
- runDescription: CDK1 ELISA kinase assay (phospho-Rb ser 795 detection)
- Assay type: biochemical
- assayContext: In Vitro Enzyme Assay, cyclin B/CDK1, read-out: CDK1 IC50
metricName: IC50

Example results:
>>> df
                                   compound   result
0  CCCCn1ccc(CN/C=C2\C(=O)NC(=O)c3ccc(I)cc32)cc1=O [Example 529]  22.4 µM
1  O=C1NC(=O)c2ccc(I)cc2/C1=C/NCc1ccc(NC(=O)c2ccco2)c(O)c1 [Example 516]  > 50 µM
2  O=C1NC(=O)c2ccc(-c3cccc(C(=O)O)c3)cc2C1=CNCc1ccc(O)c(O)c1 [Example 771]  26.5 µM
3  COc1ccc(-c2ccc3c(c2)C(=CNCc2ccc(O)c(O)c2)C(=O)NC3=O)cc1OC [Example 813]  > 50 µM
4  CN1CCN(c2ccc(NC=C3C(=O)NC(=O)c4ccc(C=Cc5cnccn5)cc43)cc2)CC1 [Example 678]  14.4 µM
5  Nc1ccc(NC=C2C(=O)NC(=O)c3ccccc32)cc1 [Example 545]  > 50 µM
6  O=C1NC(=O)c2ccc(Br)cc2/C1=C/Nc1ccc(CN2CCC(CCO)CC2)cc1 [Example 489]  > 50 µM
7  CCCCc1ccc(CN/C=C2\C(=O)NC(=O)c3ccc(I)cc32)cc1O [Example 495]  > 50 µM

Query: Return reported IC50. Input compound: N#Cc1cccc(-c2ccc3c(c2)C(=CNCc2ccc(O)c(O)c2)C(=O)NC3=O)c1 [Example 785]
Result: > 50 µM

Query: Return reported IC50. Input compound: O=C1NC(=O)c2ccc(-c3cccc([N+](=O)[O-])c3)cc2C1=CNCc1ccc(O)c(O)c1 [Example 820]
Result: > 50 µM

Query: Return reported IC50. Input compound: O=C1NC(=O)c2ccc(-c3ccc4c(c3)OCO4)cc2C1=CNCc1ccc(O)c(O)c1 [Example 812]
Result: > 50 µM

Query: Return reported IC50. Input compound: O=C1NC(=O)c2ccc(I)cc2/C1=C/Nc1ccc(CN2CCS(=O)(=O)CC2)cc1 [Example 483]
Result: > 50 µM

Query: Return reported IC50. Input compound: CN1CCN(c2ncc(N/C=C3\C(=O)NC(=O)c4ccc(I)cc43)cn2)CC1 [Example 475]
Result: > 50 µM

Query: Return reported IC50. Input compound: O=C1NC(=O)c2ccc(-c3cc4ccccc4s3)cc2C1=CNCc1ccc(O)c(O)c1 [Example 644]
Result: > 50 µM

* * *

- runDescription: I.V. and P.O. Dosing in Mice
- Type: in vivo
- assayContext: mouse, in vivo, po, 50 mg/kg, dose po 50 mg/kg, read-out: aucinf obs (po)
Each entry below carries its recorded AUC(0-inf).
Respond with the figure and its unit, in that order.

Example results:
>>> print(df.to_string())
                                 itemsmiles        result
0  CC(C)(C)c1ccc2c(c1)/C(=C/NCc1cc(O)c(-c3ccccc3)cn1)C(=O)NC2=O   879 ng·h/mL
1  CC(C)(C)c1ccc2c(c1)/C(=C/NCc1ccc(-c3ccoc3)c(O)c1)C(=O)NC2=O  1240 ng·h/mL
2  CCCOc1cnc(CN/C=C2\C(=O)NC(=O)c3ccc(C(C)(C)C)cc32)cc1O  7200 ng·h/mL

Then this compound:
Query: Return reported AUC(0-inf). Input compound: `CCCOc1ccc(CN/C=C2\C(=O)NC(=O)c3ccc(I)cc32)cc1O`
Result: 360 ng·h/mL

* * *

- targetOrTestSystem: cyclin B/CDK1 enzyme (Homo sapiens, UniProt P06493)
- Construct: purchased New England BioLabs; host or cells: Sf9 insect cells, recombinant baculovirus
- runDescription: CDK1 ELISA kinase assay (phospho-Rb ser 795 detection)
- Assay type: biochemical
- assayContext: In Vitro Enzyme Assays, read-out: CDK1 IC50
pIC50: −log10 of the molar value.
Each entry below carries its recorded pIC50.

In [3]: df
Out[3]:
                                   compound  metricname  result
0  O=C1NC(=O)c2ccc(Br)cc2/C1=C/NCc1ccc(OCC2CC2)c(O)c1 [Example 219]       pIC50  < 4.30
1  COc1ccc(CN/C=C2\C(=O)NC(=O)c3ccc(-c4ccc(F)cc4)cc32)cc1O [Example 208]       pIC50  < 4.30
2  O=C1NC(=O)c2ccc(Br)cc2/C1=C/NCc1cccnc1 [compound 30]       pIC50  < 4.30
3  O=C1NC(=O)c2ccc(I)cc2/C1=C/Nc1ccc(Cn2ccnc2)cc1 [Example 273]       pIC50  < 4.30
4  CC1CCCN1Cc1ccc(N/C=C2\C(=O)NC(=O)c3ccc(-c4ccoc4)cc32)cc1 (stereo not drawn) [Example 291]       pIC50  < 4.30
5  O=C1NC(=O)c2ccc(-c3ccoc3)cc2C1=NNc1ccc(CN2CCCCC2)cc1 [Example 156]       pIC50  < 4.30
6  O=C1NC(=O)c2ccc(I)cc2/C1=C/Nc1ccc2ncccc2c1 [Example 272]       pIC50  < 4.30
7  O=C1NC(=O)c2ccc(N3CCOCC3)cc2/C1=C/Nc1ccc(CN2CCCCC2)cc1 [Example 120]       pIC50  < 4.30
8  O=C1NC(=O)c2ccc(Br)cc2/C1=C/NCCCN1CCCC1 [Example 309]       pIC50  < 4.30
9  O=C1NC(=O)c2ccccc2/C1=C/Nc1ccc(CN2CCCCC2)cc1 [Example 13]       pIC50  < 4.55

Query: Return reported pIC50. Input compound: O=C1NC(=O)c2ccc(Br)cc2/C1=C/Nc1ccc(N2CCC(N3CCCC3)CC2)nc1 [Example 407]
Result: < 4.30

Query: Return reported pIC50. Input compound: COC[C@H]1CCCN1Cc1ccc(N/C=C2\C(=O)NC(=O)c3ccc(-c4ccsc4)cc32)cc1 [Example 331]
Result: < 4.30

The measurements presented in this section are drawn from patent US7713994B2.
